Below is a list of entries, each paired with its recorded abundance fitness value.
B1: GA-binding protein alpha chain, residues 172 to 250; numbered along this chain, Q06546 (parent)
chain: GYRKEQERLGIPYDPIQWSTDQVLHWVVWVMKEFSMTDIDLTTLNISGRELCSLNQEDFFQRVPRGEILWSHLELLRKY

Variants of: B1
EXPERIMENT_DESCRIPTION: abundance fitness (aPCA) (normalised: wild type 0, dead -1); higher = more abundant; growth selection in yeast, the domain comes from the species named
STATED_CONDITIONS: Homo sapiens
QUANTITY_KIND: abundance fitness

VARIANT_DESCRIPTOR	MEASURED_RESULT
H25R	-0.304
L69N	-0.974
W29F	-0.279
D38G	-0.031
S71W	-0.042
S35C	-0.044
I68W	-0.115
R3S	-0.214
V63H	-0.886
I11T	-0.75
E50L	-0.201
